# PROTOCOL DETAILS: Clearance in Beagle dog at 3 mg/kg, po and 1 mg/kg, iv
# Type: ADME, organism-based, Canis lupus familiaris
# TEST CONTEXT: in vivo
QUANTITY NAME: clearance (mL/min/kg)
Numbers only here, please. The scale is mL/min/kg.

{"SMILES STR": "COCCCc1cc(CN(C(=O)[C@@H](CN)Cc2ccc(CCCOc3c(Cl)cc(C)cc3Cl)cc2)C2CC2)cc(OCCOC)c1", "OBSERVED RESULT": 35}

Next compound, clearance to be filled in.
Noted for "COCCCc1ccc(Cl)c(CN(C(=O)[C@H](CN)Cc2ccc(CCCOc3c(Cl)cc(C)cc3Cl)cc2)C2CC2)c1" : its clearance reads 16

----------
# PROTOCOL DETAILS: Volume of distribution at steady state in Beagle dog at 3 mg/kg, po and 1 mg/kg, iv
# Format: ADME, organism-based, Canis lupus familiaris
# TEST CONTEXT: in vivo, read-out: Vdss
QUANTITY NAME: Vd
Param answer (str): number followed by unit.

{"SMILES STR": "COCCCc1cc(CN(C(=O)[C@@H](CN)Cc2ccc(CCCOc3c(Cl)cc(C)cc3Cl)cc2)C2CC2)cc(OCCOC)c1", "OBSERVED RESULT": "15 L/kg"}

The record that follows has no Vd shown yet.
# compound "COCCCc1ccc(Cl)c(CN(C(=O)[C@H](CN)Cc2ccc(CCCOc3c(Cl)cc(C)cc3Cl)cc2)C2CC2)c1" ; its Vd = 8.4 L/kg

----------
# PROTOCOL DETAILS: Volume of distribution at steady state in Sprague-Dawley rat at 30 mg/kg, po and 5 mg/kg, iv
# Type: ADME, organism-based
# TEST CONTEXT: in vivo, read-out: Vdss
QUANTITY NAME: Vd (L/kg)
Numeric only. Scale: L/kg

{"SMILES STR": "COCCCc1ccc(Cl)c(CN(C(=O)[C@H](CN)Cc2ccc(CCCOc3c(Cl)cc(C)cc3Cl)cc2)C2CC2)c1", "Vd [L/kg]": 12}

Now consider the entry below.
Lab book: Vd of "COCCCc1cc(CN(C(=O)[C@@H](CN)Cc2ccc(CCCOc3c(Cl)cc(C)cc3Cl)cc2)C2CC2)cc(OCCOC)c1" noted as 3.6

----------
# PROTOCOL DETAILS: Half life in Beagle dog at 3 mg/kg, po and 1 mg/kg, iv
# Format: ADME, organism-based, Canis lupus familiaris
# TEST CONTEXT: in vivo
QUANTITY NAME: half-life (h)
Field: numeric (h). Do not append units.

{"SMILES STR": "COCCCc1cc(CN(C(=O)[C@@H](CN)Cc2ccc(CCCOc3c(Cl)cc(C)cc3Cl)cc2)C2CC2)cc(OCCOC)c1", "UNIT NAME": "h", "OBSERVED RESULT": 7.5}

The reported value for "COCCCc1ccc(Cl)c(CN(C(=O)[C@H](CN)Cc2ccc(CCCOc3c(Cl)cc(C)cc3Cl)cc2)C2CC2)c1" in terms of half-life is 17

----------
# ASSAYED TARGET: Renin (Homo sapiens)
# Sequence (P00797 whole entry): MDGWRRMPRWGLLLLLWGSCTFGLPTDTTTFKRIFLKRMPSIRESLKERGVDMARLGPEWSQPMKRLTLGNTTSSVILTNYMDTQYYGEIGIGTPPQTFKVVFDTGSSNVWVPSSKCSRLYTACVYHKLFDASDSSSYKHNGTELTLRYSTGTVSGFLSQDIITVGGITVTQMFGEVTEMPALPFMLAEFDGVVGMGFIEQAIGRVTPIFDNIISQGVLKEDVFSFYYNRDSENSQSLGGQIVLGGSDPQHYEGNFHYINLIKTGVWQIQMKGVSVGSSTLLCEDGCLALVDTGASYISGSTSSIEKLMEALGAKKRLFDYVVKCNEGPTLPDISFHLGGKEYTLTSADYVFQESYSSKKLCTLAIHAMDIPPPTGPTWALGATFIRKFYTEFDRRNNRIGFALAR
# PROTOCOL DETAILS: Inhibition of human recombinant renin in PBS buffer at pH 7.4
Labelling field: enter Fulfilled if recorded IC50 is less than 0.3 nM. Enter Not fulfilled if it equals or exceeds that cut-off.

Please review the following examples before continuing.
{"MOLECULE": "O=C(C(CNCc1ccccc1)Cc1ccc(CCCOc2c(F)ccc(F)c2Cl)cc1)N(Cc1cccc(Cl)c1Cl)C1CC1 (stereo unspecified)", "CAT": "Not fulfilled"}
{"MOLECULE": "CC(=O)N(C)Cc1ccc(Cl)c(CN(C(=O)C(CN)Cc2ccc(CCCOc3c(Cl)cc(C)cc3Cl)cc2)C2CC2)c1 (stereo unspecified)", "CAT": "Not fulfilled"}

I'd appreciate it if you could check whether CNCC(Cc1ccc(CCCOc2c(F)ccc(F)c2Cl)cc1)C(=O)N(Cc1cccc(Cl)c1Cl)C1CC1 (stereo unspecified) has IC50 smaller than 0.3 nM. Not fulfilled

Determine whether this molecule shows IC50 lower than 0.3 nM (ties excluded): COCCOc1ccc(Cl)c(CN(C(=O)C(CN)Cc2ccc(CCCOc3c(Cl)cc(C)cc3Cl)cc2)C2CC2)c1 (stereo unspecified) Fulfilled

Dear reviewer, please state whether CC(CN)(Cc1ccc(CCCOc2c(F)ccc(F)c2Cl)cc1)C(=O)N(Cc1cccc(Cl)c1Cl)C1CC1 (stereo unspecified) has IC50 strictly beneath 0.3 nM. Not fulfilled

Problem: For the molecule "Cc1cc(Cl)c(OCCCc2ccc(C[C@@H](CN)C(=O)N(Cc3cc(CCCC#N)ccc3Cl)C3CC3)cc2)c(Cl)c1" , is IC50 under 0.3 nM? Fulfilled

Criterion: IC50 strictly below 0.3 nM. Is it met by COCCCc1ccc(Cl)c(CN(C(=O)C(CN)Cc2ccc(CCCOc3c(Cl)cc(C)cc3Cl)cc2)C2CC2)c1 (racemic) ? Fulfilled

I wonder whether NCCC(CC(=O)N(Cc1cccc(Cl)c1Cl)C1CC1)c1ccc(CCCOc2c(F)ccc(F)c2Cl)cc1 (stereo unspecified) has IC50 below 0.3 nM. Can you tell? Not fulfilled

API: query returns whether the molecule falls strictly under 0.3 nM in IC50. Query: COCCCc1cc(CN(C(=O)C(CN)Cc2ccc(CCCOc3c(Cl)cc(C)cc3Cl)cc2)C2CC2)c(Cl)cn1 (stereo unspecified) Fulfilled

Find out if reported IC50 for Cc1cc(Cl)c(OCCCc2ccc(CC(CN)C(=O)N(Cc3cc(CCCO)ccc3Cl)C3CC3)cc2)c(Cl)c1 (stereo unspecified) is less than 0.3 nM Fulfilled
